- condition: Crystal; DTA
valueType: Normal melting temperature (°C)
Answer in °C, number only, no unit symbol.

May I ask what Normal melting temperature has been recorded for CCCCCCCCCCCC(=O)O ?
44.2

Requested field: Normal melting temperature. Item: CCCCCCCCCCCC(=O)OCC(COC(=O)CCCCCCCCCCC)OC(=O)CCCCCCCCCCC [1,2,3-propanetriyl tridodecanoate]
48.8

I would be grateful if you could share the reported Normal melting temperature for CCCCCCCCCCCCCC(=O)OCC(COC(=O)CCCCCCCCCCCCC)OC(=O)CCCCCCCCCCCCC [1,2,3-propanetriyl tri(tetradecanoate)] .
58.0

Given the molecule CCCCCCCCCCCCCCCCCC(=O)OCC(COC(=O)CCCCCCCCCCCCCCCCC)OC(=O)CCCCCCCCCCCCCCCCC [glycerol trioctadecanoate] , what is its reported Normal melting temperature?
73.5

So what does the record say about Normal melting temperature for CCCCCCCCCCCCCC(=O)O ?
54.5

Reported Normal melting temperature for CCCCCCCCCCCCCCCC(=O)O : what is it?
62.8

Query: Normal melting temperature; subject: CCCCCCCCCCCCCCCCCC(=O)O
70.0

Look at this molecule and give its reported Normal melting temperature. CCCCCCCCCCCCCCCC(=O)OCC(COC(=O)CCCCCCCCCCCCCCC)OC(=O)CCCCCCCCCCCCCCC [1,2,3-propanetriyl tri(hexadecanoate)]
67.6

Normal melting temperature lookup needed for CCCCCCCCCCCCCCCC , thanks.
18.2

====

- assayOverview: Molar enthalpy of transition or fusion
- condition: Crystal; DSC
What Molar enthalpy of transition or fusion was measured for each of the following?

Which measured Molar enthalpy of transition or fusion value corresponds to CCCCCCCCCCCCCCCC(=O)OCC(COC(=O)CCCCCCCCCCCCCCC)OC(=O)CCCCCCCCCCCCCCC [1,2,3-propanetriyl tri(hexadecanoate)] ?
43.3 kcal/mol

Any idea what Molar enthalpy of transition or fusion was measured for CCCCCCCCCCCC(=O)O ?
8.99 kcal/mol

// lookup Molar enthalpy of transition or fusion for CCCCCCCCCCCCCC(=O)OCC(COC(=O)CCCCCCCCCCCCC)OC(=O)CCCCCCCCCCCCC [1,2,3-propanetriyl tri(tetradecanoate)]
36.7 kcal/mol

Look up Molar enthalpy of transition or fusion: CCCCCCCCCCCC(=O)OCC(COC(=O)CCCCCCCCCCC)OC(=O)CCCCCCCCCCC [1,2,3-propanetriyl tridodecanoate]
30.4 kcal/mol

Quick one: Molar enthalpy of transition or fusion for CCCCCCCCCCCCCC(=O)O ?
10.7 kcal/mol

I'd like to know its Molar enthalpy of transition or fusion. The compound in question is CCCCCCCCCCCCCCCCCC(=O)O
15.1 kcal/mol

Any idea what its Molar enthalpy of transition or fusion is? The compound is CCCCCCCCCCCCCCCCCC(=O)OCC(COC(=O)CCCCCCCCCCCCCCCCC)OC(=O)CCCCCCCCCCCCCCCCC [glycerol trioctadecanoate]
46.7 kcal/mol

If you can, please state the reported Molar enthalpy of transition or fusion value of CCCCCCCCCCCCCCCC(=O)O .
13.3 kcal/mol

Data credit: the NIST ThermoML archive (doi:10.1021/acs.jced.6b00355)
